Biological target: T1, human GIP receptor (human, UniProt P48546 22-466)
T1 sequence (looked up): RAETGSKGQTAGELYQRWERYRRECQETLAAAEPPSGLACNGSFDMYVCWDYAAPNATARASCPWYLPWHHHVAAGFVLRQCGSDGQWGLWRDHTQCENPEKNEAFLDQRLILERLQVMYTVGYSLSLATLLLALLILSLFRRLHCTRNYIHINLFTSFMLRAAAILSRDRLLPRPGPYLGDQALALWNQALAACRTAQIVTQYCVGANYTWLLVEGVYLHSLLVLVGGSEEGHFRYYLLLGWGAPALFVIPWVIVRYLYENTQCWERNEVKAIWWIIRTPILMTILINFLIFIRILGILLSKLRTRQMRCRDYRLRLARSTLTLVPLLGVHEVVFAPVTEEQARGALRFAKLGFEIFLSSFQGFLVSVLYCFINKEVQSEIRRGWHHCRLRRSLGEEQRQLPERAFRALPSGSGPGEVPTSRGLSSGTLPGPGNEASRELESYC
Test: cell-based or functional assay
result_type: fold (EC50 vs native GIP) (fold)
Answers are plain numbers, in fold.

Here are 3 binders together with their reported answers.
HAEGTFISDYSIAMDKLAARDFINWLIQTKITD [GIP-GLP-2 co-agonist 7] = 292
HAEGTFSDEYSTILDNLAARDFINWLIQTKITD [GIP-GLP-2 co-agonist 5] = 5120
HVDGTFISDYSTILDNLAARDFINWLIQTKITD [GIP-GLP-2 co-agonist 12] = 12

State recorded fold (EC50 vs native GIP) for all listed binders.
1. HGDGTFISDYSTILDNLAARDFINWLIQTKITD [GIP-GLP-2 co-agonist 11]
2. HAEGTFISDYSTILDNLAARDFINWLIQTKITDNDWKHNITQ [GIP-GLP-2 co-agonist 2]

Reply text:
1: 36; 2: 135

Give me fold (EC50 vs native GIP) for each of these binders, listed below.
1. HADGTFISDYSTILDNLAARDFINWLIQTKIKD [GIP-GLP-2 co-agonist 17]
2. HADGTFISDYSTILDNLAARDFINWLIQTKGTD [GIP-GLP-2 co-agonist 16]
3. HAEGTFISDYSTILDNLAARDFINWLIQTKITD [GIP-GLP-2 co-agonist 1]
4. HAEGSFISDYSTILDNLAARDFINWLIQTKITD [GIP-GLP-2 co-agonist 4]

Reply text:
1. 4.5
2. 6.7
3. 337
4. 427

Provenance of the data: patent US20200392198A1
